assay_info: recombinant barcode read abundance after kanamycin selection (control-corrected) (log10(CPM+1)); higher = more efficient recombination; sequences stand for … in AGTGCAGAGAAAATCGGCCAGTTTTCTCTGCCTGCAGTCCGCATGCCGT…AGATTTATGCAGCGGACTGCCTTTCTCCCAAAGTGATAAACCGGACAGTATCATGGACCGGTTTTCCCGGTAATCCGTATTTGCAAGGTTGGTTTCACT; site = the 11-nt target;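 note: IS621 recombinase and bridge RNA in Escherichia coli cells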
Entries and their measured recombinant barcode read abundance (log10) follow.
Number, no unit, nothing else.

Worked examples, 10 sequences total:
ACATACACTTGGGTTCTAACCTGTTGCCT (site ACCTACCCTAG) | 0.298
CTGCACCCTTGGGTTCTAACCTGTTGCAG (site CTGCACCCTCT) | 0.477
ATATACGCTTGGGTTCTAACCTGTTGCCT (site ATATACGCTAG) | 1.84
GAGATGTCTTGGGTTCTAACCTGTTGCCT (site GTGATGTCTAG) | 0.577
GGAAAGACTTGGGTTCTAACCTGTTGCCT (site GGGAAGACTAG) | 0.297
GTGAGGTCTTGGGTTCTAACCTGTTGCCT (site GTGAGGTCTAT) | 0.442
CCAATGTCTTGGGTTCTAACCTGTTGCGT (site CCAATGTCTAC) | 1.03
CCGCATACTTGGGTTCTAACCTGTTGCCT (site CGGCATACTAG) | 0.0516
GCTGGGTCTTGGGTTCTAACCTGTTGCCT (site GATGGGTCTAG) | 0.0435
TAGAACACTTGGGTTCTAACCTGTTGCTT (site TAGAACACTCA) | 0.0447

Input: Quick check: recombinant barcode read abundance (log10) of AATGTGTCTTGGGTTCTAACCTGTTGCCT (site AAAGTGTCTAG) ?
Output: 0.663

Input: Quick check: recombinant barcode read abundance (log10) of ACTTTGCCTTGGGTTCTAACCTGTTGCCT (site ACATTGCCTAG) ?
Output: 0.0554

Input: Quick check: recombinant barcode read abundance (log10) of TTGGCAGCTTGGGTTCTAACCTGTTGCCT (site TTGGCAGCTAG) ?
Output: 2.08

Input: Quick check: recombinant barcode read abundance (log10) of CTGATCACTTGGGTTCTAACCTGTTGCCT (site CTGATGACTAG) ?
Output: 0.0708

Input: Quick check: recombinant barcode read abundance (log10) of CTAAGCTCTTGGGTTCTAACCTGTTGCTT (site CTAAGCTCTCA) ?
Output: 0.133
